Quick reference for B-score functional assay among some compounds
tested_on: human NTCP (Homo sapiens)
Sequence (Q14973 whole entry): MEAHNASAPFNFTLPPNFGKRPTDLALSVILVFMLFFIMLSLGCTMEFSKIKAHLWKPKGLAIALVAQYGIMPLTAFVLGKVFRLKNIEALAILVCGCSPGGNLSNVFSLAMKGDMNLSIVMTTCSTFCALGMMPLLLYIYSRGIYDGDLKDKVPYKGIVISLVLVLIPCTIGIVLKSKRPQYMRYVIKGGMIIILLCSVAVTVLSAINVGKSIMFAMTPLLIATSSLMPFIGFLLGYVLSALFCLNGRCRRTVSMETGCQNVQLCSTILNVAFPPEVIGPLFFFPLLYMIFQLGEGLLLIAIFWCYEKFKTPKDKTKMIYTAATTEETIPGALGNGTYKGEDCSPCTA
measurement_notes: Screening taurocholate uptake assay (96-well, [14C]taurocholate, 10 µM drug)
condition_notes: screening taurocholate uptake, 10 µM drug
Structures can show the parent of a compound that is named as a salt.
value_type: B-score functional assay

| compound | result |
| --- | --- |
| CO[C@H]1/C=C/O[C@@]2(C)Oc3c(C)c(O)c4c(O)c(c5c(nc6cc(C)ccn65)c4c3C2=O)NC(=O)/C(C)=C\C=C\[C@H](C)[C@H](O)[C@@H](C)[C@@H](O)[C@@H](C)[C@H](OC(C)=O)[C@@H]1C | -0.408 |
| CC/C(=C(/CC)c1ccc(O)cc1)c1ccc(O)cc1 | -0.349 |
| CCC(C)(C)c1ccc(CC(C)CN2C[C@@H](C)O[C@@H](C)C2)cc1 (some centres unmarked) [Amorolfine hydrochloride] | -0.84 |
| CC(C)[C@H](N)C(=O)OCCOCn1cnc2c(=O)[nH]c(N)nc21 [Valacyclovir hydrochloride] | 0.32 |
| CC(NC(C)(C)C)C(=O)c1cccc(Cl)c1 (centres unmarked) [Bupropion hydrochloride] | 0.583 |
| OCCN1C[C@H](O)[C@@H](O)[C@H](O)[C@H]1CO | -1.145 |
| CCN(CC)C(=O)c1ccc(O)c(OC)c1 | -1.181 |
| C/C(=C(\CCOP(=O)(O)O)SC(=O)c1ccccc1)N(C=O)Cc1cnc(C)nc1N | -0.56 |
| C[C@@H]1O[C@@H](O[C@@H]2C=C3CC[C@@H]4[C@H](CC[C@]5(C)[C@@H](c6ccc(=O)oc6)CC[C@]45O)[C@@]3(C)CC2)[C@H](O)[C@H](O)[C@H]1O | -2.06 |
| OC(CCN1CCCC1)(c1ccccc1)C1CCCCC1 (centres unmarked) [Procyclidine hydrochloride] | -0.705 |
| C[C@]12C=CC(=O)C=C1CC[C@@H]1[C@@H]2[C@@H](O)C[C@@]2(C)[C@H]1CC[C@]2(O)C(=O)CO | -0.52 |
| COc1ccc(-c2cc(=O)c3c(O)cc(O[C@@H]4O[C@H](CO[C@@H]5O[C@@H](C)[C@H](O)[C@@H](O)[C@H]5O)[C@@H](O)[C@H](O)[C@H]4O)cc3o2)cc1O | -1.635 |
| C[C@@H]1[C@H](O)[C@@H](C)/C=C/C=C/C=C/C=C/C=C/C=C/C=C/[C@H](O[C@@H]2O[C@H](C)[C@@H](O)[C@H](N)[C@@H]2O)C[C@@H]2O[C@](O)(C[C@@H](O)C[C@@H](O)[C@H](O)CC[C@@H](O)C[C@@H](O)CC(=O)O[C@H]1C)C[C@H](O)[C@H]2C(=O)O | -7.097 |
| CC(=O)OCC(=O)[C@@]1(O)[C@H](C)C[C@H]2[C@@H]3CCC4=CC(=O)C=C[C@]4(C)[C@@]3(F)[C@@H](O)C[C@@]21C [Dexamethasone acetate] | 0.046 |
| CCCc1nc2c(C)cc(-c3nc4ccccc4n3C)cc2n1Cc1ccc(-c2ccccc2C(=O)O)cc1 | -4.106 |
| CN(C(=O)CN(CCO)CC(=O)N(C)C(C)(C)Cc1ccccc1)C(C)(C)Cc1ccccc1 | 0.282 |
| c1ccc2c(c1)Nc1ccccc1S2 | -0.168 |
| CC(C)(O)c1ccccc1CC[C@@H](SCC1(CC(=O)O)CC1)c1cccc(/C=C/c2ccc3ccc(Cl)cc3n2)c1 | -3.762 |
| C=C1/C(=C\C=C2/CCC[C@]3(C)[C@@H]([C@H](C)/C=C/[C@@H](O)C4CC4)CC[C@@H]23)C[C@@H](O)C[C@@H]1O | -4.364 |
| CN1CC2c3ccccc3Oc3ccc(Cl)cc3C2C1 (centres unmarked) [Asenapine maleate] | -0.488 |
| CC(=O)N[C@@H](CC(C)C)C(=O)O | -1.591 |
| CC(=O)Oc1ccc(C(c2ccc(OC(C)=O)cc2)c2ccccn2)cc1 | -3.114 |
| NCCc1c[nH]cn1 [Histamine dihydrochloride] | 0.779 |
| CC(=O)NC[C@H]1CN(c2ccc(N3CCOCC3)c(F)c2)C(=O)O1 | -1.549 |
| Cl.OC(CCN1CCCCC1)(c1ccccc1)C1CCCCC1 (centres unmarked) [Trihexyphenidyl-D,L Hydrochloride] | 0.458 |
| CC(C)(Oc1ccc(C2CC2(Cl)Cl)cc1)C(=O)O (centres unmarked) [Ciprofibrate] | 0.025 |
| CCOC(=O)O[C@]1(C(=O)OCCl)CC[C@H]2[C@@H]3CCC4=CC(=O)C=C[C@]4(C)[C@H]3[C@@H](O)C[C@@]21C [Loteprednol etabonate] | -2.765 |
| CC1(C)S[C@@H]2[C@H](NC(=O)[C@H](C(=O)O)c3ccsc3)C(=O)N2[C@H]1C(=O)O [Ticarcillin sodium] | -0.726 |
| Cc1cccc(C)c1OCC(C)N (centres unmarked) [Mexiletine hydrochloride] | -0.898 |
